experiment: NCI Yeast Anticancer Drug Screen. Data for the bub3 strain (AID 167); details: S. cerevisiae bub3 mutant strain, at 50.0 µM, stronger effect = higher value
This is part of a sample that, as a whole, favours compounds with a hit. Of some 79,000 tested, about 15% had one in any assay. Calls of active or inactive are those of the source. Rule as the data show it: active = growth inhibition above about 70%; inactive = the rest.
# reported growth inhibition; entries follow
recorded.metric: growth inhibition

| structure.smiles | measurement |
| --- | --- |
| CCN(CC)CCN(C)c1ccccc1 | -0.1% (inactive) |
| O=C1c2c(F)c(F)c(F)c(F)c2SC2=Nc3cccc4cccc(c34)N12 | -4.25% (inactive) |
| O=[N+]([O-])c1ccc(N=P(c2ccccc2)(c2ccccc2)c2ccccc2)n2nnnc12 | -15.2% (inactive) |
| [N-]=[N+]=NC(=O)c1cccc2c1Cc1ccccc1-2 | -11.5% (inactive) |
| O=[N+]([O-])c1cc(S(=O)(=O)O)cc(S(=O)(=O)O)c1O | 16.5% (inactive) |
| CC(=O)Oc1c(/C=C/c2ccccc2)c(OC(C)=O)c2cc(Br)ccc2c1OC(C)=O | -17.2% (inactive) |

---

test: NCI Yeast Anticancer Drug Screen. Data for the rad50 strain (AID 155);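 also: 0% = growth of vehicle-only cultures of the same strain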; conditions: S. cerevisiae rad50 strain growth inhibition; at 50.0 µM; stronger effect = higher value
The panel holds about 79,000 compounds, 15% with a hit somewhere; the sample as a whole holds those more often. Calls of active or inactive are those of the source. Rule as the data show it: active = growth inhibition above about 70%; inactive = the rest.
recorded.metric: growth inhibition

| compound | measurement |
| --- | --- |
| Nc1c2cc3ccc2nc2ccc(cc12)OCCOCCOCCOCCOCCOCCO3 | -3.05% (inactive) |
| C1=Cc2ccccc2/C1=C\C=C\c1ccccc1 | 19.1% (inactive) |
| N#CCCS(=O)(=O)O | 29.1% (inactive) |
| CC(C)CC(N)C(=O)NC(Cc1c[nH]c2ccccc12)C(N)=O (centres undefined) | -8.85% (inactive) |
| COC1OC(COC(=O)c2ccc([N+](=O)[O-])cc2)C(O)C1SC#N (centres undefined) | 43.5% (inactive) |
| COc1cccc2c1C(=O)c1c(O)c3c(c(O)c1C2=O)C[C@@](O)(c1csc(-c2ccncc2)n1)C[C@@H]3OC1CC(N)C(O)C(C)O1 (some centres undefined) | 22.8% (inactive) |
| O=C(OCc1ccccc1)C1CC1 (tested in a mixture with another compound) | 12.1% (inactive) |
| CCCCC#CCC#Cc1ccccc1 | -4.3% (inactive) |
| O=[N+]([O-])c1ccc(S(=O)(=O)N/N=C/c2cccc3ccccc23)cc1 | 6.6% (inactive) |
| Nc1ccc(I)cc1 | -10.8% (inactive) |
| CCOC(=O)C1C=C1C(C)(C)O (centres undefined) | -15.4% (inactive) |
| COc1ccc(/C=C2\NC(=O)NC2=O)cc1Br | 11.8% (inactive) |
| CCN(CC)CCNc1ccc(N)c2sc3ccccc3c(=O)c12 | 8.45% (inactive) |
| S=C1CC(c2ccccc2)Sc2cc(Cl)ccc2N1 (centres undefined) | -15.5% (inactive) |
| CCC(C)(C(=O)O)c1ccccc1 (centres undefined) | 4.1% (inactive) |
| CC1CC2=C(C(=O)c3ccccc3C2=O)C(C)O1 (centres undefined) | 3.15% (inactive) |
| COc1cc(C)c(OC)c(C/C=C(\C)CC2=C(CC(C)(C)O)C(=O)[C@]3(C)CCC[C@]3(C)C2)c1 | 33.6% (inactive) |
| C/C=C/[C@@H]1[C@H]2C(=O)[C@]3(Cl)[C@@H](/C=C/C)[C@@H]3C(=O)[C@@]12Cl | 5.05% (inactive) |
| Nc1nnc(N)c2nc(-c3ccccc3)c(-c3ccccc3)nc12 | 10.4% (inactive) |
| OC(CNc1ncccn1)(Cc1ccccc1)Cc1ccccc1 | 9% (inactive) |
| O=CNC1(c2ccccc2)CCCCC1 | 2% (inactive) |
| COc1ccc2cc(C(=O)CCC(=O)O)ccc2c1 | 2.7% (inactive) |
| CC(O)C(NC(=O)Nc1ncnc2nc[nH]c12)C(=O)O (centres undefined) | 8.8% (inactive) |
| O=C(CCCCC(=O)NC1c2ccccc2Oc2ccccc21)NC1c2ccccc2Oc2ccccc21 | 35.2% (inactive) |

---

# reported growth inhibition; entries follow
assay: NCI Yeast Anticancer Drug Screen. Data for the rad50 strain (AID 155);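 also: 0% = growth of vehicle-only cultures of the same strain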; settings: S. cerevisiae rad50 strain growth inhibition; at 50.0 µM; stronger effect = higher value
The panel holds about 79,000 compounds, 15% with a hit somewhere; the sample as a whole holds those more often.

| molecule | measurement.unit | growth inhibition |
| --- | --- | --- |
| CCOC(=O)c1c(-c2ccc(Cl)cc2)c(C#N)c(=S)n(C2OC(COC(C)=O)C(OC(C)=O)C(OC(C)=O)C2OC(C)=O)c1C (stereo not drawn) | % | -0.4 |
| COC(=O)N/N=C(\C(=O)Nc1cccc([N+](=O)[O-])c1)c1nc2ccc([N+](=O)[O-])cc2[nH]c1=O | % | 8.65 |
| CCN(CC)c1ccc(/C=C2\SC(=S)NC2=O)cc1 | % | 2.95 |
| CN(C)c1ccc(C(=Cc2ccccc2)c2ccc(N(C)C)cc2)cc1 | % | -0.9 |
| CCN(CC)c1c(C)nnn1C1OC(COC(C)=O)C(OC(C)=O)C(OC(C)=O)C1OC(C)=O (stereo not drawn) | % | -0.8 |
| COc1c(NC(=O)Nc2ccc(F)c([N+](=O)[O-])c2)cccc1[N+](=O)[O-] | % | 7.85 |
| O=C(Nc1ccccc1Br)c1ccc(F)cc1 | % | -0.9 |
| CC[N+](C)(CC)c1ccccc1 | % | -4.35 |

---

test: NCI Yeast Anticancer Drug Screen. Data for the mec2-1 strain (AID 157); details: S. cerevisiae mec2-1 strain, at 50.0 µM, stronger effect = higher value
This is part of a sample that, as a whole, favours compounds with a hit. Of some 79,000 tested, about 15% had one in any assay. The source made the active and inactive calls. No stated cut-off is given here; in the data, active means growth inhibition above about 70%; inactive means the rest.
recorded.metric: growth inhibition

| molecule | measurement |
| --- | --- |
| COC1=CC(=C(c2ccc(O)c(OC)c2)c2ccc(O)c(OC)c2)C=CC1=O | -6.95% (inactive) |
| CCCCCCCSC#N | 20.9% (inactive) |
| CC(C)NC(=O)Nc1ccccc1Cl | -8.9% (inactive) |
| C=C(C)[C@@]1(OC(=O)c2cc([N+](=O)[O-])cc([N+](=O)[O-])c2)C[C@@H]2CCCC[C@@H]21 | -26.1% (inactive) |
| Br/C=C/c1ccccc1 | 11.3% (inactive) |
| CCCCCCCCCCCCCCCCCC(=O)N1C(=O)c2ccccc2C1=O | 2.35% (inactive) |
| c1ccc2cc(-c3csc4ccccc34)ccc2c1 | -16.4% (inactive) |
| Cc1cc(C)n(-c2nc(C)c(CCO)c(=O)[nH]2)n1 | -14.6% (inactive) |
| CCCCN(CCCC)C(=O)OCC | 8.3% (inactive) |
| CCCCNC(=O)CSc1cc(Cl)c(Cl)cc1Cl | 9.1% (inactive) |
| C(=C\c1ccc(OCc2ccccc2)cc1)/c1ccc(OCc2ccccc2)cc1 | -13.7% (inactive) |
| COc1cccc(NC(=O)/C(CS(=O)(=O)CCC(C(C)=O)C(C)=O)=N\NC(C)(C)C)c1 | 0.7% (inactive) |
| CC[Si](CC)(CC)[Si](c1ccccc1)(c1ccccc1)c1ccccc1 | 32% (inactive) |
| CN1c2ccccc2N(C)C2C1N(C)c1ccccc1N2C (configuration not stated) | -28.4% (inactive) |
| COc1cc2c(c(OC)c1OC)-c1c(cc3c(c1OC)OCO3)C1OC2C(C)C1C (configuration not stated) (tested in a mixture with another compound) | -55% (inactive) |
| COc1nc2c(c(O)c(C)c(=O)n2OC2OC(COC(C)=O)C(OC(C)=O)C(OC(C)=O)C2OC(C)=O)c(=O)n1C (configuration not stated) | -15.8% (inactive) |
| CCN(CC)CCOc1ccc(Cc2nc3c([nH]2)c(=O)n(C)c(=O)n3C)cc1 | 2.85% (inactive) |

---

experiment: NCI Yeast Anticancer Drug Screen. Data for the rad50 strain (AID 155);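 also: 0% = growth of vehicle-only cultures of the same strain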; conditions: S. cerevisiae rad50 strain growth inhibition; at 50.0 µM; stronger effect = higher value
This is part of a sample that, as a whole, favours compounds with a hit. Of some 79,000 tested, about 15% had one in any assay.
recorded.metric: growth inhibition (%)

| compound | measurement.unit | measurement |
| --- | --- | --- |
| CC1(C)C2C/C(=N/O)C(=O)C1C2 (stereo not drawn) | % | -4.5 |
| C=CCCCCOCOCCOC | % | 13.7 |
| Cc1cc(=O)oc2cc3c(cc12)Oc1ccccc1O3 | % | -6.85 |

---

# reported growth inhibition; entries follow
Experiment: NCI Yeast Anticancer Drug Screen. Data for the mlh1 rad18 strain (AID 175)
Conditions: S. cerevisiae mlh1 rad18 strain growth inhibition; at 50.0 µM; stronger effect = higher value
Method: Growth inhibition of yeast strains with defined genetic alterations is measured as a screen for potential anti-cancer activity. Selected strains with alterations in DNA damage repair or cell cycle control were exposed to compounds and growth inhibition was measured relative to vehicle treated controls. The strain used in this assay is mlh1 rad18
The panel holds about 79,000 compounds, 15% with a hit somewhere; the sample as a whole holds those more often. Activity calls are given as the source filed them. Cut-off read from the data, not from the text of the source: active = growth inhibition above about 70%; inactive = the rest.

| compound | growth inhibition |
| --- | --- |
| CCN1CCCC(SC(=O)C(O)(c2ccccc2)c2ccccc2)C1 (stereo not drawn) | 0.15% (inactive) |
| c1ccc(-c2csc(-c3nc(-c4ccccc4)cs3)n2)cc1 | 60.6% (inactive) |
| COc1cc(C=C(c2ccc(N(C)C)cc2)c2ccc(N(C)C)cc2)c2ccccc2c1OC | -42.5% (inactive) |
